test system: HCT-116 colon; experiment: NCI tumour cell line growth inhibition, 48 h
A collection of compounds and their measured TGI

Sample answers from the record:
[[record]]
compound = "O=C(/C=C\\Nc1ccccc1O)C(Cl)(Cl)Cl"
testedsystem = "HCT-116 colon"
measure = "TGI"
result = "> 100 µM"

[[record]]
compound = "C=CCCC(C)N(C(=O)OC(C)(C)C)S(=O)(=O)c1ccc(C)cc1 (stereo not drawn)"
testedsystem = "HCT-116 colon"
measure = "TGI"
result = "> 100 µM"

[[record]]
compound = "CCOC(=O)CNC1C(NC(C)=O)C(OC)OC2COC(c3ccccc3)OC21 (stereo not drawn)"
testedsystem = "HCT-116 colon"
measure = "TGI"
result = "> 100 µM"

[[record]]
compound = "O=C(OCC1CCCN2CCCCC12)c1ccncc1 (stereo not drawn)"
testedsystem = "HCT-116 colon"
measure = "TGI"
result = "> 100 µM"

[[record]]
compound = "CC1(C)C(=O)C2(OS(=O)(=O)C(F)(F)F)CCC1C2 (stereo not drawn)"
testedsystem = "HCT-116 colon"
measure = "TGI"
result = "> 100 µM"

[[record]]
compound = "COc1ccc(C[C@H]2COC(=O)[C@@H]2Cc2ccc(O)cc2)cc1OC"
testedsystem = "HCT-116 colon"
measure = "TGI"
result = "> 100 µM"


Ask | Name the recorded TGI of the item N=c1oc2ccc(Cl)cc2cc1C(=O)NCc1ccccc1 in your answer.
Reply | > 100 µM

Ask | Hello, please tell me recorded TGI for this one: COC1OC(CBr)C(OC(c2ccccc2)(c2ccccc2)c2ccccc2)C(OC(c2ccccc2)(c2ccccc2)c2ccccc2)C1OC(c1ccccc1)(c1ccccc1)c1ccccc1 (stereo not drawn)
Reply | > 100 µM

---

Quick reference for TGI among some molecules
system: NCI-H522 lung; assay: NCI tumour cell line growth inhibition, 48 h
Where a SMILES comes first, the peptide text is derived from it. [ ]: non-standard residue; d: D form. The star is where a group is joined. ξ: configuration not given here. Propanoyl(3-(4-MeO-Ph)) = COc1ccc(CCC(=O)*)cc1; Thr(3ξ) = CC(O)[C@H](N)C(=O)O; dNMeL = CN[C@H](CC(C)C)C(=O)O; OBn = c1ccc(CO*)cc1; ξLac = CC(O)C(=O)O
Give just the numeric value; µM need not be written.

[[record]]
molecule = "COc1c(B(O)O)cccc1-c1nc2c(F)cc3[nH]ncc3c2c2c1CCCC2"
measure = "TGI"
resultnumber = 13.1


Ask | Quickly give me recorded TGI for C/C=C1\C(=O)O[C@@H]2C1C[C@@H]1O[C@H]2[C@H](C)CCC/C(C)=C/CC[C@@]1(C)O (some centres undefined)
Reply | 7.06

Ask | Identify measured TGI corresponding to COc1cc2c(=O)n(CCCn3ccnc3)c3c4cc5c(cc4ccc3c2cc1OC)OCO5
Reply | 17.1

Ask | Using known records, supply TGI for COc1ccc(CCC(=O)OC(C)[C@H](NC(=O)[C@@H](CC(C)C)N(C)C(=O)[C@@H]2CCCN2C(=O)C(C)O)C(=O)OCc2ccccc2)cc1 (some centres undefined) (H-[ξLac]P[dNMeL][Thr(3ξ)](Propanoyl(3-(4-MeO-Ph)))-OBn)
Reply | 50.4

Ask | # return recorded TGI for entry Cc1ccc2c(N/N=C\c3ccco3)cc(C)nc2n1
Reply | 9.84

Ask | Tell me its TGI given NC1=NC(c2ccccc2)CC(c2cc(Cl)cc(Br)c2O)=N1 (centres undefined) as the entry.
Reply | 15.4

Ask | Please supply the value of reported TGI for the item COC(=O)c1ccc(CCc2cc(O)c(Br)cc2O)cc1
Reply | 12.3

Ask | Look up and report measured TGI for this entry: O=C(COc1ccc(Cl)cc1)N1N=C(c2ccc([N+](=O)[O-])o2)CC1(O)c1ccccc1 (centres undefined)
Reply | 38.6

Ask | Hello, please tell me recorded TGI for this one: O=c1ccccc(-c2ccc(-c3ccco3)cc2)c1O
Reply | 45.8

---

tested on: UACC-62 melanoma; test: NCI tumour cell line growth inhibition, 48 h
measure: TGI (µM)
Give the value, in units of µM, as a plain number.

Here is how some compounds turned out for TGI.
[[record]]
compound = "O=C(NCCCCNCCCNC(=O)c1cc(-c2ccccc2)nc2ccccc12)c1cc(-c2ccccc2)nc2ccccc12"
measure = "TGI"
resultnumber = 3.9

[[record]]
compound = "O=C(c1cc2c(C(F)(F)F)onc2c2ccccc12)C(F)(F)F"
measure = "TGI"
resultnumber = 17

[[record]]
compound = "COc1c(B(O)O)cccc1-c1nc2c(F)cc3[nH]ncc3c2c2c1CCCC2"
measure = "TGI"
resultnumber = 9.53

[[record]]
compound = "O=C(COc1ccc(Cl)cc1)N1N=C(c2ccc([N+](=O)[O-])o2)CC1(O)c1ccccc1 (stereo unspecified)"
measure = "TGI"
resultnumber = 19.7

[[record]]
compound = "CSc1ccc(/C=C2\\N=C(c3ccccc3)N(c3nc4c(Cl)cc(Cl)cc4s3)C2=O)cc1"
measure = "TGI"
resultnumber = 73.1


Ask | Identify measured TGI associated with O=C1CCCCC[C@]12SC[C@H]1CON=C12
Reply | 71.7

Ask | Could you please provide reported TGI for Cc1ccc2c(N/N=C\c3ccco3)cc(C)nc2n1 ? Thanks!
Reply | 3.69

---

test system: SK-MEL-5 melanoma; assay: NCI tumour cell line growth inhibition, 48 h
Label Satisfied when TGI is at or above 9 µM; anything below gets Not satisfied.

Solved cases (5 shown):
[[record]]
molecule = "CN(C)CCNC(=O)c1ccc(NCCCN(C)CCCNc2ccc(C(=O)NCCN(C)C)c3[nH]c4ccc([N+](=O)[O-])cc4c(=O)c23)c2c(=O)c3cc([N+](=O)[O-])ccc3[nH]c12"
classification = "Not satisfied"

[[record]]
molecule = "CCCCNC(=O)Oc1ccc2c(=O)c3sc4c(=O)c5ccccc5c(=O)c4c3c(=O)c2c1"
classification = "Not satisfied"

[[record]]
molecule = "O[C@H]1[C@H](O)[C@H](O)CN2CCC[C@@H](O)[C@H]12"
classification = "Satisfied"

[[record]]
molecule = "O=C1OC(C2OC(=O)c3cc(O)c(O)c(O)c3-c3c(O)c(O)c4oc(=O)c5c(c(O)c(O)c6oc(=O)c3c4c65)-c3c(cc(O)c(O)c3O)C(=O)OCC2O)C2OC(=O)c3c(c(O)c(O)c(O)c3[C@H]2O)-c2c1cc(O)c(O)c2O (some centres not stated)"
classification = "Satisfied"

[[record]]
molecule = "C/C=C1\\C(=O)O[C@@H]2C1C[C@@H]1O[C@H]2[C@H](C)CCC/C(C)=C/CC[C@@]1(C)O (some centres not stated)"
classification = "Satisfied"


Ask | Exam item: decide whether the reported TGI for O=C(NC1CCN(Cc2ccccc2)CC1)c1cc(C(=O)NC2CCN(Cc3ccccc3)CC2)cc(C(=O)NC2CCN(Cc3ccccc3)CC2)c1 is at least 9 µM.
Reply | Satisfied

---

test system: OVCAR-8 ovarian; experiment: NCI tumour cell line growth inhibition, 48 h; in the data active = GI50 below about 0.43 µM; inactive = the rest
Assign a class; possible classes are True for active, False for inactive

Sample answers from the record:
[[record]]
compound = "CC1OC(O[C@H]2/C=C/C=C/C=C/C=C/C=C/C=C/C=C/[C@H](C)[C@@H](O)[C@@H](C)[C@H](C)OC(=O)C[C@H](O)C[C@H](O)CC[C@@H](O)[C@H](O)C[C@H](O)C[C@]3(O)C[C@H](O)[C@@H](C(=O)O)[C@H](C2)O3)C(O)C(N)C1O (stereo partly specified)"
classification = "False"

[[record]]
compound = "C#Cc1cccc(Nc2ncnc3ccc(-c4cnc(Cl)c(NS(C)(=O)=O)c4)cc23)c1"
classification = "False"

[[record]]
compound = "Cc1cccc2c1O/C(=C\\c1ncc([N+](=O)[O-])n1C)C2=O"
classification = "True"

[[record]]
compound = "COC(=O)c1cc2c3c(cc(O)c2[nH]1)N(C(=O)C1Cc2cc(OC)c(OC)c(OC)c2N1)CC3CCl (stereo unspecified)"
classification = "True"

[[record]]
compound = "Cc1cccc2c1NC(=O)[C@@]21[C@H](C(=O)c2ccccc2)[C@]2(C(=O)Nc3ccccc32)[C@H]2CCCN21"
classification = "False"


# input for lookup
Ask | Name the outcome recorded for CCC(c1ccc(OC)cc1)C(CC)c1ccc(O)c(CN2CCCC2)c1 (stereo unspecified) in the assay.
Reply | False

---

system: M14 melanoma; test: NCI tumour cell line growth inhibition, 48 h
Short version: TGI at least 30 µM is class 1, less is class 0.

[[record]]
compound = "N#CC(N=Nc1ccccc1)c1nc2ccccc2o1 (centres undefined)"
testedsystem = "M14 melanoma"
classification = "class 1"


Ask | Record O=c1c(-c2ccccc2Cl)coc2cc(F)ccc12 ; criterion: TGI no lower than 30 µM. Met?
Reply | class 1

Ask | Item N#Cc1nn(C2OC(COC(=O)c3ccccc3)C(OC(=O)c3ccccc3)C2OC(=O)c2ccccc2)c2nc[nH]c(=O)c12 (centres undefined) with TGI of 30 µM or above?
Reply | class 1
